- Study target: UniProt:P11712
- Sequence (P11712 whole entry): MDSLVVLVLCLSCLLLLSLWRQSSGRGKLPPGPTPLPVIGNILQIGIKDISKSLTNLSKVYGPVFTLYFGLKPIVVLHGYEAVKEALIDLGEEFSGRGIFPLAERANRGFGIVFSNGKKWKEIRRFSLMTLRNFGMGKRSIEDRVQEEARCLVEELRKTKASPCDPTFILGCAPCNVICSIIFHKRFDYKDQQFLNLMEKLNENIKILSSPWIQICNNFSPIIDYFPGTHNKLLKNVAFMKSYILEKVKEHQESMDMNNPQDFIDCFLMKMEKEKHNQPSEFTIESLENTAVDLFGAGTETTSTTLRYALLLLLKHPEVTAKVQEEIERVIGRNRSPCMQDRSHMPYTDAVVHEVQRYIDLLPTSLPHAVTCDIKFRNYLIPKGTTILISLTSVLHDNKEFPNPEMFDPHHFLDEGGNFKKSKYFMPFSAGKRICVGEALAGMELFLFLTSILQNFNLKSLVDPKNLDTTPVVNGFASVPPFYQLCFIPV
Property name: pIC50
Recall that pIC50 is obtained by taking minus log10 of the concentration measured in molar.

What reported pIC50 corresponds to `O=C(O)c1ccccc1Oc1ncc(Cl)cc1NS(=O)(=O)c1ccc(Cl)c(Cl)c1` on UniProt:P11712? 4.67

---

Entries and their pKi values follow.
- Study target: C-C chemokine receptor type 2 (Homo sapiens, UniProt P41597)
- Sequence (P41597 whole entry): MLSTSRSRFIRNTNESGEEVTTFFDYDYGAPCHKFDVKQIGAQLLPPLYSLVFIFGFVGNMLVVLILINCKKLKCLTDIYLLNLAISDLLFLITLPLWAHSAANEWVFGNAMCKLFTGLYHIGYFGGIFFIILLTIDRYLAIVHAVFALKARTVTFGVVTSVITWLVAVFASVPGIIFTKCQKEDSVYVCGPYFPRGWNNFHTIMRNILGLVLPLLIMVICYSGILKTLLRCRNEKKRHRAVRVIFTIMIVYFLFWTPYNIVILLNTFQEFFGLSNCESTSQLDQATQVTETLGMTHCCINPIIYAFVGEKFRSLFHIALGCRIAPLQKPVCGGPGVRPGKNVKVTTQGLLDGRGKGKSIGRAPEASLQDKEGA
- Test details: Antagonist activity at human CCR2 expressed in CHO cells assessed as inhibition of MCP1-induced [35S]-GTPgammaS binding after 3 hrs
Recall that pKi is obtained by taking minus log10 of the concentration measured in molar.

Previously resolved entries follow.
>>> df
                                chem_smiles  property_name  test_value
0  O=C(O)c1ccccc1Oc1ccc(Cl)cc1NS(=O)(=O)c1cccc(Cl)c1            pKi        8.10
1  N#Cc1ccc(Oc2ccccc2C(=O)O)c(NS(=O)(=O)c2ccc(Cl)cc2)c1            pKi        7.20
2  O=C(O)c1ccccc1Oc1ccc(Cl)cc1NS(=O)(=O)c1ccc(Cl)cc1            pKi        7.70
3  O=C(O)c1ccccc1Oc1nccnc1NS(=O)(=O)c1ccc(Cl)c(Cl)c1            pKi        6.10
4  O=C(NCCO)c1ccccc1Oc1ncc(Cl)cc1NS(=O)(=O)c1ccc(Cl)c(Cl)c1            pKi        7.60

Consider the molecule `O=C(O)c1cccc(Oc2ncc(Cl)cc2NS(=O)(=O)c2ccc(Cl)c(Cl)c2)c1` and give its measured pKi. 8.80

Consider the molecule `O=C(O)c1ccccc1Oc1ccc(Cl)cc1NS(=O)(=O)c1ccccc1` and give its measured pKi. 6.80

Consider the molecule `O=C(O)c1cncc(Oc2ncc(Cl)cc2NS(=O)(=O)c2ccc(Cl)c(Cl)c2)c1` and give its measured pKi. 8.00

Consider the molecule `O=C(O)c1ccccc1Oc1c(Cl)cccc1NS(=O)(=O)c1ccc(Cl)cc1` and give its measured pKi. 6.40

Consider the molecule `N#Cc1ccc(Oc2ncc(Cl)cc2NS(=O)(=O)c2ccc(Cl)c(Cl)c2)cn1` and give its measured pKi. 7.80
